study.target: Pyruvate kinase PKLR (Homo sapiens) (UniProt P30613)
Sequence (P30613 whole entry, looked up): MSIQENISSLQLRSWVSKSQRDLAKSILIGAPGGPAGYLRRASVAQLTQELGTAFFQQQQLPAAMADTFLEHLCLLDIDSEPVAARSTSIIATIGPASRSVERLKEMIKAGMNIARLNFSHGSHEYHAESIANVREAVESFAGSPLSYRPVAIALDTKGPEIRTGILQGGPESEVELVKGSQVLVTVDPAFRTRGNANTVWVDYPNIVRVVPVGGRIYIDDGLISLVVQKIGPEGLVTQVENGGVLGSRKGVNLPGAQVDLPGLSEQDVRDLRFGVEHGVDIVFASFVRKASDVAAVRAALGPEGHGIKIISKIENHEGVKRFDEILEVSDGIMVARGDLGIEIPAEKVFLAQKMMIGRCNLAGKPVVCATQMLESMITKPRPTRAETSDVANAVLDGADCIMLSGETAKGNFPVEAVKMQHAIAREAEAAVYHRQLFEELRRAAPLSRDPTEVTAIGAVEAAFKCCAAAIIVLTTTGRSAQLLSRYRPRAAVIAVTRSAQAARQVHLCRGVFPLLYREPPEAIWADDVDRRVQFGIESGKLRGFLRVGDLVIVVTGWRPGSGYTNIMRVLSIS
test.description: Inhibition of human pyruvate kinase R at 10 uM by LDH assay
Could you please report measured inhibition for the items listed next?
Give bare numbers, in %.

Before answering, review these 10 worked examples.
C/C(=N\NC(=O)c1cc(Br)ccc1O)c1cc2ccccc2[nH]1 ... -8.7
COc1ccc(Br)cc1C(=O)N/N=C(\C)c1cc2ccccc2[nH]1 ... 31.9
C/C(=N\NC(=O)c1cc(I)ccc1O)c1cc2ccccc2[nH]1 ... 0.9
CC(=NNC(=O)c1cc(Br)ccc1O)c1nc2ccccc2n1C (mixture of isomers) ... 7.1
COc1ccc2c(c1)cc(C(C)=NNC(=O)c1cc(Br)ccc1O)n2C (mixture of isomers) ... 5.5
C/C(=N\NC(=O)c1cc(Br)ccc1O)c1cc2cc(Cl)ccc2[nH]1 ... 2.4
CCC(=NNC(=O)c1cc(Br)ccc1O)c1cc2ccccc2n1C (mixture of isomers) ... -1.9
CC(=NNC(=O)c1cc(Br)ccc1O)c1cc2cc(Br)ccc2n1C (mixture of isomers) ... 14.2
CC(=NNC(=O)c1cc(Br)ccc1O)c1cc2cc(F)ccc2n1C (mixture of isomers) ... -2.9
CCC(=NNC(=O)c1cc2ccccc2cc1O)c1cc2cc(Br)ccc2n1C (mixture of isomers) ... -0.6

Can you give me inhibition for all of these, one by one?
1. C/C(=N\NC(=O)c1cc(Br)ccc1O)c1cc2ccccc2s1
2. C/C(=N\NC(=O)c1cc(Br)ccc1O)c1nc2ccccc2[nH]1
3. O=C(NN=C(c1ccccc1)c1cc2ccccc2[nH]1)c1cc(Br)ccc1O
4. CC(=NNC(=O)c1cc(Br)ccc1O)c1cc2ccccc2n1C (mixture of isomers)

OUT:
[12.5, -1.4, 13.4, 2.6]
